Recorded values, source paper PMC10786891.

# TESTED ON: T1, EsCas13d, nuclease-dead (Eubacterium siraeum, UniProt B0MS50, R295A;H300A;R849A;H854A)
# T1 sequence: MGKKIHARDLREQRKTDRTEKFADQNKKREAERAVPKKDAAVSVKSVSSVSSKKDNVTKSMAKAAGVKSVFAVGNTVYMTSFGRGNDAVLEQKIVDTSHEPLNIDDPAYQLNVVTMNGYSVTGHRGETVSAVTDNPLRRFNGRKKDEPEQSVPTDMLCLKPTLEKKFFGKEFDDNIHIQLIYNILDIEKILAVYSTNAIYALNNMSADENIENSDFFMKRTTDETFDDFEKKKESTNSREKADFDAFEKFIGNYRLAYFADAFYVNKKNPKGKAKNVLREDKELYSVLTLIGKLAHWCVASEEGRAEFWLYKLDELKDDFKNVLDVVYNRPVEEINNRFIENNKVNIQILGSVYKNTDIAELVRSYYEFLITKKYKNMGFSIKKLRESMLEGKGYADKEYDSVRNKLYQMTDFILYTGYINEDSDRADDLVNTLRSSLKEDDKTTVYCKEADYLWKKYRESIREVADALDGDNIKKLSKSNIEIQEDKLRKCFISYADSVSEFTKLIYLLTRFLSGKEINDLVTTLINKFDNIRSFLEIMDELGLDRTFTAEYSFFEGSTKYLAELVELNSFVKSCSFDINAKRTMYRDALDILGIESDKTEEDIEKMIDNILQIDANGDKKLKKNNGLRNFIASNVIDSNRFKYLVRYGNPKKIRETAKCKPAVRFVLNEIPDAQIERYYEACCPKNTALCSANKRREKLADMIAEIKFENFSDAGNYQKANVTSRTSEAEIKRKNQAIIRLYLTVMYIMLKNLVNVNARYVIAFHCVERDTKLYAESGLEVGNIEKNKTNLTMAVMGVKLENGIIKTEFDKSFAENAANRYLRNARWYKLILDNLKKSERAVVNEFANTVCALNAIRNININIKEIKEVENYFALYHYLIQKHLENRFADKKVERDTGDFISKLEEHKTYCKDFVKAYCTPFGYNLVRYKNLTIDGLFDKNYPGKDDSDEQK
# MEASUREMENT PROTOCOL: crRNA (strand 1, pre-loaded); Mg2+; 40 mM Tris-HCl pH 7.5, 150 mM NaCl, 6 mM MgCl2, 1 mM DTT, 0.1% Tween-20, 0.2 mg/ml BSA; 25 C; 10 min per concentration, then washed
# CONDITION LABEL: tags: His6-TwinStrep-SUMO cleaved; N-terminal SNAP kept (SNAP-Surface 488); label: 3' end held by stalled T7 RNA polymerase
ENDPOINT: pKd
Expect pKd as a plain number equal to -log10 of the molar concentration.

Enquiry: Please give the measured pKd for this binder: target 3 insA 3' of 22,insU 3' of 19 (mixed) RNA 1: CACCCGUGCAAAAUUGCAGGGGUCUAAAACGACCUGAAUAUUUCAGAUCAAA RNA 2: GGGAAUGGAUCCACAUCUACGAAUUCGUUUAUUGUAUCUGAAAUAUUCAGGUCUGCAGAUCGGAAGAGCACACGU
Return: 7.19

Enquiry: Please give the measured pKd for this binder: target 1 insG 3' of 16,insG 3' of 9 (mixed) RNA 1: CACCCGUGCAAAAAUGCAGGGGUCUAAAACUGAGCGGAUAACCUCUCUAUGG RNA 2: GGGAAUGGAUCCACAUCUACGAAUUCGUACCAUAGAGGAGGUUAGUCCGCUCACCGAGAUCGGAAGAGCACACGU
Return: 7.51
